- ASSAY COMMENT: CellTiter-Glo cell viability assay
- Format: cell-based
- TEST CONTEXT: human; MeWo; after 24-hour treatment; read-out: inhibition of cell viability
METRIC NAME: cytotoxicity at 24 h

Item CN[C@@H]1C[C@H]2O[C@@](C)([C@@H]1OC)n1c3ccccc3c3c4c(c5c6ccccc6n2c5c31)C(=O)NC4 [Staurosporine, reference compound] : provide cytotoxicity at 24 h
100%

Values were extracted from patent US11987555B2.
